Would you kindly list IC50 for each of these compounds?
- tested_on: Zcchc11 enzyme (Homo sapiens, UniProt Q5TAX3)
- Construct: made in house; host or cells: HEK293 cells (Zcchc11); E. coli Rosetta II (LIN28A)
- Sequence (Q5TAX3 212-1420): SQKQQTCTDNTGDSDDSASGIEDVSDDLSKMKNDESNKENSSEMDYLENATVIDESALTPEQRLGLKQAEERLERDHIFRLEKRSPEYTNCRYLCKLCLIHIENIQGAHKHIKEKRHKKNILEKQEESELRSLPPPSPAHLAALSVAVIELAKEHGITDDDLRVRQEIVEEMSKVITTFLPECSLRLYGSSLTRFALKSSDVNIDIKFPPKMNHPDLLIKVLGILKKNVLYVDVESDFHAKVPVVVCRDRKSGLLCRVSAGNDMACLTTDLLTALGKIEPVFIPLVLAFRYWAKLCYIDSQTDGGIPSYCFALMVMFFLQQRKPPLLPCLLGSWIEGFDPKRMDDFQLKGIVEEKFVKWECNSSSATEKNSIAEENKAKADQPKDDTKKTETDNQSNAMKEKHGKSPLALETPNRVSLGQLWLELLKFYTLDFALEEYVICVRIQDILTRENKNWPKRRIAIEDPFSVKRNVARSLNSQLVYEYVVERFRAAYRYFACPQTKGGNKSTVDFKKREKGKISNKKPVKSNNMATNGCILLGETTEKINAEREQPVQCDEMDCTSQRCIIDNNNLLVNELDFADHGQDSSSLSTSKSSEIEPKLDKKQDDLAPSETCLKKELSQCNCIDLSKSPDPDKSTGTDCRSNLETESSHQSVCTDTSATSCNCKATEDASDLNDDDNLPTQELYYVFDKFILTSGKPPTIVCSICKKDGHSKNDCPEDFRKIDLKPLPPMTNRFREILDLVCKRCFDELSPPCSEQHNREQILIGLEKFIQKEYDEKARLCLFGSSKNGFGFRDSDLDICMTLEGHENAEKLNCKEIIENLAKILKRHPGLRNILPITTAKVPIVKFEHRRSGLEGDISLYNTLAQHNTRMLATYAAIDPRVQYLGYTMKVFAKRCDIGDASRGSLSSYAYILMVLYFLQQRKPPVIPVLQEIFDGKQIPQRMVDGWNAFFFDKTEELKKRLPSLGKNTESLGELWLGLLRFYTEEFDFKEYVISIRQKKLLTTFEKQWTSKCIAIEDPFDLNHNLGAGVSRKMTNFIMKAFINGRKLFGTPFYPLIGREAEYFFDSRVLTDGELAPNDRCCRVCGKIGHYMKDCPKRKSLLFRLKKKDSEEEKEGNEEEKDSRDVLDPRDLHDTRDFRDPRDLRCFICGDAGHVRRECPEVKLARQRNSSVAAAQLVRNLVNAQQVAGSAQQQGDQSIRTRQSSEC
- assay_overview: TUTase assay (Zcchc11 assay, Lin28a-dependent polyuridylation of pre-let-7)
- Type: biochemical
- condition_label: LIN28A 10 nM, Zcchc11 0.2 nM, 5′-fluorescein pre-let-7 miRNA 2 nM, UTP 5 uM, room temperature, 30 minutes pre-incubation; read-out: Potency Lin28a-dep Z11 IC50

Fill in: IC50 of CS(=O)(=O)Nc1ccc(-n2cc(C(=O)O)c(=O)c3cc(Cl)c(N4CCC[C@@H]4COc4ncccc4Cl)cc32)cn1 [Example 26] is ___
≤ 1000 nM

Look at this compound and give its reported IC50. O=C(O)c1cn(C2CC2)c2c(F)c(N3CCC[C@@H]3COc3cccnn3)c(F)cc2c1=O [Example 29]
1000 to 10000 nM

Please report the recorded IC50 for COc1ccnc(OC[C@H]2CCCN2c2cc3c(cc2Cl)c(=O)c(C(=O)O)cn3-c2ccc(N3CC(N(C)C)C3)nc2)c1Cl [Example 75] .
≤ 1000 nM

Would you kindly share the measured IC50 for O=C(O)c1cn(-c2ccc(O)cc2)c2cc(N3CCC[C@@H]3Cn3ccc4ncccc43)c(F)cc2c1=O [Example 11] ?
≤ 1000 nM

Where do these numbers come from? They come from patent US12662491B2.
